Target: T1, mouse serum albumin (MSA), full length (mouse, UniProt P07724 25-608)
T1 construct: mature; Immobilized on CM5 chip (SPR) or coated on plates (ELISA); also called mouse albumin; murine serum albumin
Test: direct binding ELISA, coated MSA, anti-His-HRP
Set-up: unit not given here
Protocol: Direct binding ELISA assays were conducted as follows. Full length human and murine serum albumin at 10ug/ml in PBS were coated on Nunc Maxisorp plates overnight at 4° C. Plates were blocked in casein/PBS buffer. […] Bound Adnectin was detected by anti-His antibody conjugated with HRP (horseradish peroxidase) diluted 1:1500 in casein/PBS. Plates were developed with TMB substrate and absorbance read at 450 nm. […]
quantity kind: MSA DB ELISA (OD450) Ymin obs

Worked examples follow.
ADX_6727_B04 (Y35S/K85S) (designed binder, Full His6-tagged entry) MGVSDVPRDLEVVAATPTSLLISWDAPAVTVRYYRITYGREVQKSSDLGPLYIYQEFTVPGSKSTATISGLKPGVDYTITVYAVTGSGESPASSSPISINYRTEIDKPSQHHHHHH	74
ADX_6727_F06 (L41A/K85T) (designed binder, Full His6-tagged entry) MGVSDVPRDLEVVAATPTSLLISWDAPAVTVRYYRITYGREVQKYSDLGPAYIYQEFTVPGSKSTATISGLKPGVDYTITVYAVTGSGESPASSTPISINYRTEIDKPSQHHHHHH	4
ADX_6727_B11 (Q33D/K85S) (designed binder, Full His6-tagged entry) MGVSDVPRDLEVVAATPTSLLISWDAPAVTVRYYRITYGREVDKYSDLGPLYIYQEFTVPGSKSTATISGLKPGVDYTITVYAVTGSGESPASSSPISINYRTEIDKPSQHHHHHH	1
ADX_6727_D01 (K85T) (designed binder, Full His6-tagged entry) MGVSDVPRDLEVVAATPTSLLISWDAPAVTVRYYRITYGREVQKYSDLGPLYIYQEFTVPGSKSTATISGLKPGVDYTITVYAVTGSGESPASSTPISINYRTEIDKPSQHHHHHH	88

[I] ADX_6727_C03 (Y35S) (designed binder, Full His6-tagged entry) MGVSDVPRDLEVVAATPTSLLISWDAPAVTVRYYRITYGREVQKSSDLGPLYIYQEFTVPGSKSTATISGLKPGVDYTITVYAVTGSGESPASSKPISINYRTEIDKPSQHHHHHH
[II] ADX_6727_C07 (R30A/K85S) (designed binder, Full His6-tagged entry) MGVSDVPRDLEVVAATPTSLLISWDAPAVTVRYYRITYGAEVQKYSDLGPLYIYQEFTVPGSKSTATISGLKPGVDYTITVYAVTGSGESPASSSPISINYRTEIDKPSQHHHHHH
Two entries are listed, I and II . Which one carries the higher MSA DB ELISA (OD450) Ymin obs? State your choice using its label.
I
(I: 23, II: 6)

[1] ADX_6727_D02 (R30N) (designed binder, Full His6-tagged entry) MGVSDVPRDLEVVAATPTSLLISWDAPAVTVRYYRITYGNEVQKYSDLGPLYIYQEFTVPGSKSTATISGLKPGVDYTITVYAVTGSGESPASSKPISINYRTEIDKPSQHHHHHH
[2] ADX_6727_C01 (K85A) (designed binder, Full His6-tagged entry) MGVSDVPRDLEVVAATPTSLLISWDAPAVTVRYYRITYGREVQKYSDLGPLYIYQEFTVPGSKSTATISGLKPGVDYTITVYAVTGSGESPASSAPISINYRTEIDKPSQHHHHHH
For the pair 1 and 2 , which member has the lower MSA DB ELISA (OD450) Ymin obs number? Returns: label corresponding to the selected item.
1

All values here come from patent US20180258158A1.
